assay: clinical; conditions: human, in vivo, 100 mg, t1/2
parameter: half-life (h)
Provide only the numeric value, understood in h.

# query: half-life of entry COC(=O)N[C@H](C(=O)N1CCC[C@H]1c1nc2cc(-c3csc4c(-c5ccc(-c6cnc([C@@H]7CCCN7C(=O)[C@H](NC(=O)OC)c7ccccc7)[nH]6)cc5)csc34)ccc2[nH]1)C(C)C 22.9

====

experiment: Phase I/IIa Group A: pharmacokinetics in healthy subjects; format: in vivo, human; conditions: human, plasma, oral, 5 mg, healthy subjects, 5 mg single dose, fasted, PK Day 1, median (min-max)
parameter: Tmax
Please give the number followed by its unit.

# query: Tmax of entry COC(=O)N[C@H](C(=O)N1CCC[C@H]1c1nc2cc(-c3csc4c(-c5ccc(-c6cnc([C@@H]7CCCN7C(=O)[C@H](NC(=O)OC)c7ccccc7)[nH]6)cc5)csc34)ccc2[nH]1)C(C)C 4 h
